Provide the recorded IC50 for the entries that follow.
- targetOrTestSystem: CCK-A (Rattus norvegicus, UniProt P30551)
- Construct: CCK-A receptors prepared from the cell membranes of rat pancreas; from tissue; host or cells: rat pancreas membranes (male rats, Japan Laboratory Animals)
- Sequence (P30551 1-444): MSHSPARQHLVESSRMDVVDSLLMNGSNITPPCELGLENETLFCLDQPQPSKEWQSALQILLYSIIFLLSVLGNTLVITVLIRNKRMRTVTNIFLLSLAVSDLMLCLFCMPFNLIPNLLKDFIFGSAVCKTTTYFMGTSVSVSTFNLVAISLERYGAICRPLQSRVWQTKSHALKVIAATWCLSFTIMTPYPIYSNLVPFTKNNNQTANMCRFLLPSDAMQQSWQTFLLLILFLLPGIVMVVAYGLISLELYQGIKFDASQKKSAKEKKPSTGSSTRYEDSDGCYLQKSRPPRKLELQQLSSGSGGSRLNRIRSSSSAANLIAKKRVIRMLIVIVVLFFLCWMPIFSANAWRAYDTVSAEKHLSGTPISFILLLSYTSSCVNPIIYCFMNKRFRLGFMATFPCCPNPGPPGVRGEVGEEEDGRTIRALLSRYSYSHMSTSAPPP
- test: Peripheral receptor (CCK-A) binding experiment, [^3 H]-CCK-8 binding inhibition
- conditionContext: rat pancreas homogenate, 0.2 nM [^3 H]-CCK-8, 60 minutes at 25° C; read-out: CCK-A IC50
Give bare numbers, in nM.

Q. Entry under review: O=C(N[C@@H](CCCn1nnc(C(=O)O)c1C(=O)O)C(=O)N1CCN(C(c2ccccc2)c2ccccc2)CC1)c1cc2ccccc2[nH]1 . Reported IC50?
A. 140

Q. Entry under review: CC(C)C(C(C)C)N1CCN(C(=O)[C@H](CSc2ncccc2C(=O)O)NC(=O)c2cc3ccccc3[nH]2)CC1 . Reported IC50?
A. 30

Give IC50 for all molecules that follow.
1. O=C(N[C@@H](CSc1nccnc1C(=O)O)C(=O)N1CCN(C(c2ccccc2)c2ccccc2)CC1)c1cc2ccccc2[nH]1
2. O=C(N[C@@H](CSc1ncccc1C(=O)O)C(=O)N1CCC(C(c2ccccc2)c2ccccc2)CC1)c1cc2ccccc2[nH]1
3. CCCCC(CCCC)N1CCN(C(=O)[C@H](CSc2ncccc2C(=O)O)NC(=O)c2cc3ccccc3[nH]2)CC1
4. CCCCCN(CCCOC)C(=O)C(CCC(=O)O)NC(=O)c1ccc(Cl)c(Cl)c1 (stereo not shown) [CR1505, Loxiglumide, reference compound]
5. O=C(N[C@@H](CSc1ncccc1C(=O)O)C(=O)N1CCN(C(c2ccccc2)c2ccccc2)CC1)c1cc2ccccc2[nH]1
6. O=C(N[C@@H](CCn1nncc1C(=O)O)C(=O)N1CCN(C(c2ccccc2)c2ccccc2)CC1)c1cc2ccccc2[nH]1
7. O=C(O)c1cn(CCC[C@H](NC(=O)c2cc3ccccc3[nH]2)C(=O)N2CCN(C(c3ccccc3)c3ccccc3)CC2)nn1
8. O=C(N[C@@H](CSc1ncccc1C(=O)O)C(=O)N1CCN(C2c3ccccc3CCc3ccccc32)CC1)c1cc2ccccc2[nH]1

A.
560
4.3
170
1500
5.1
37
1500
9

Give IC50 for all molecules that follow.
1. O=C(N[C@@H](CCCn1nncc1C(=O)O)C(=O)N1CCN(C(c2ccccc2)c2ccccc2)CC1)c1cc2ccccc2[nH]1
2. O=C(N[C@@H](CSc1ncccc1C(=O)O)C(=O)N1CCN(C(c2ccccc2)c2ccccc2)CC1)c1cc2cc(O)ccc2[nH]1
3. O=C(N[C@@H](Cc1ocnc1C(=O)O)C(=O)N1CCN(C(c2ccccc2)c2ccccc2)CC1)c1cc2ccccc2[nH]1

A.
[70, 5, 180]
